experiment: Selectivity index, ratio of IC50 for human A431 cells to MIC>99 for antimycobacterial activity against XDR Mycobacterium tuberculosis Praha 131 after 14 days; format: toxicity; details: read-out: Selectivity Index
value_type: selectivity ratio at 336 h

In [3]: df
Out[3]:
                            compound_string                  value_type  assay_result
0  O=[N+]([O-])c1cc(-c2nnc(SCc3ccccc3)n2Cc2ccccc2)cc(C(F)(F)F)c1  selectivity ratio at 336 h         > 100

###

test: Genotoxicity in Salmonella typhimurium TA98 at 30 uM in presence of rat liver S9 fraction by Ames test; format: toxicity, subcellular; details: salmonella enterica subsp. enterica serovar typhimurium, s9, 30 µM
value_type: Activity

>>> print(df.to_string())
                            compound_string  assay_result
0  O=[N+]([O-])c1cc(-c2nnc(SCc3ccc(Cl)c(Cl)c3)n2Cc2ccccc2)cc(C(F)(F)F)c1     Non-Toxic
1  Cn1c(SCc2ccc(Cl)cc2)nnc1-c1cc([N+](=O)[O-])cc([N+](=O)[O-])c1     Non-Toxic
2  O=[N+]([O-])c1cc(-c2nnc(SCc3ccccc3)n2Cc2ccccc2)cc([N+](=O)[O-])c1     Non-Toxic
3                     Nc1ccc2cc3ccccc3cc2c1         Toxic
4  O=[N+]([O-])c1cc(-c2nnc(SCc3ccc(Cl)cc3)n2Cc2ccccc2)cc([N+](=O)[O-])c1         Toxic
5  O=[N+]([O-])c1cc(-c2nnc(SCc3ccc(Cl)c(Cl)c3)n2Cc2ccccc2)cc([N+](=O)[O-])c1         Toxic
